TESTED TARGET: acyl-CoA:cholesterol acyltransferase (ACAT)
ASSAY EXPLANATION: Assay for ACAT activity with [1-14C]oleoyl-CoA and rat liver microsomal enzyme
EXPERIMENTAL SETUP: read-out: IC50 against ACAT; rat liver microsomal enzyme
pIC50: −log10 of the molar value.
PROPERTY: pIC50

Reference set (3 entries):
| COMPOUND | OBSERVED VALUE |
| --- | --- |
| CC(C)CNC(=O)/C=C/C=C/CC/C=C/c1ccc2c(c1)OCO2 [Chemical Formula 1, retrofractamide A] | 4.61 |
| CC(C)CNC(=O)/C=C/C=C/CCCC/C=C/c1ccc2c(c1)OCO2 [Chemical Formula 2, pipercide] | 5.43 |
| O=C(/C=C/CCCCCCc1ccc2c(c1)OCO2)N1CCCCC1 | 4.06 |

a: CCCCC/C=C/C=C/C(=O)NCC(C)C
b: CC(C)CNC(=O)/C=C/CCCCCC/C=C/c1ccc2c(c1)OCO2 [Chemical Formula 4, piperchabamide D]
(Q) Could you tell me which of these two has the smaller pIC50 figure? First: a Second: b Answer by stating the label of the chosen item.
(A) a
